target-desc: RARα (Homo sapiens)
Construct: gal4 (fusion partner); expressed in transfected cells; host or cells: COS-7
Sequence (P10276 183-417 limits assumed): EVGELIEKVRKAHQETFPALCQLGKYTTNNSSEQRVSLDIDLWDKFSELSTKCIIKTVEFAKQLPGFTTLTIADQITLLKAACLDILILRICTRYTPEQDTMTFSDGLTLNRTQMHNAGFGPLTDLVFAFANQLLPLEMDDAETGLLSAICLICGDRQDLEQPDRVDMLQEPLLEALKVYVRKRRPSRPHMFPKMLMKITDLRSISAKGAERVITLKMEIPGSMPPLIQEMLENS
run-description: Transactivation assay for RAR alpha (gal4-RAR fusion, luciferase reporter, COS-7 cells)
Type: cell-based
experimental-context: fold-selectivity for RARα over RARβ
Binary classification by RARα/RARβ ratio (*), with 60 as an inclusive lower bound for class 1; all other cases are class 0.

Solved cases below.
- Cc1cc(NC(=O)c2cc(Cl)c(OC(C)(C)C)c(C(F)(F)F)c2)ccc1C(=O)O [AAA-038]: class 1
- CCOc1cc(C(=O)Nc2ccc(C(=O)O)c(C)c2)cc(OC(CC)CC)c1Cl [AAA-115]: class 0
- CCOc1cc(C(=O)Nc2ccc(C(=O)O)cc2)cc(OC(CC)CC)c1Cl [AAA-114]: class 0

*Q* Reported RARα/RARβ ratio (*) reaches at least 60 for CCC(CC)Oc1cc(C(=O)Nc2ccc(C(=O)O)cc2)cc(Cl)c1OC [AAA-101] ?
*A* class 0

*Q* Please indicate if the recorded RARα/RARβ ratio (*) for CCOc1cc(C(=O)Nc2ccc(C(=O)O)cc2)cc(OCC)c1Br [AAA-106] meets or exceeds 60.
*A* class 0

*Q* # bool: RARα/RARβ ratio (*) of CC(C)(C)Oc1c(Cl)cc(C(=O)Nc2ccc(C(=O)O)cc2)cc1C(F)(F)F [AAA-037] >= 60
*A* class 1

====

target-desc: RARα (Homo sapiens)
Construct: gal4 (fusion partner); expressed in transfected cells; host or cells: COS-7
Sequence (P10276 183-417 limits assumed): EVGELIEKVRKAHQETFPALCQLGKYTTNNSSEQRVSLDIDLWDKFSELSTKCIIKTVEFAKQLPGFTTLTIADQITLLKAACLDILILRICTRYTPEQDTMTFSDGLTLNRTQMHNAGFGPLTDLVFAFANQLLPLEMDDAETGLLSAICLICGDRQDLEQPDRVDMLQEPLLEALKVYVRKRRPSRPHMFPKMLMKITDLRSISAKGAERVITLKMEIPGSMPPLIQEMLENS
run-description: Transactivation assay for RAR alpha (gal4-RAR fusion, luciferase reporter, COS-7 cells)
Type: cell-based
experimental-context: ratio of test compound EC50 to that of atRA on the same plate
Protocol: Transcriptional transactivation assays were performed with gal4 fusion receptor constructs, created using each of the RAR ligand binding domains, co-transfected with the pFR-luc (Stratagene™) reporter construct in COS-7 cells. Briefly, on day 1, 96 well plates were seeded with 8000 cells per well then left to recover overnight. On day 2, the cells were co-transfected with 100 ng of reporter plasmid and 10 ng of the appropriate receptor plasmid per well using lipofectamine (Invitrogen™). […]
Record form. Attribute: RARα activity ratio. Fill in for each entry.
Answers are plain numbers.

Worked examples follow.
- CCOc1c(F)cc(C(=O)Nc2ccc(C(=O)O)cc2)cc1F: 19
- Cc1cc(NC(=O)c2cc(Cl)c(OC(C)(C)C)c(Cl)c2)ccc1C(=O)O: 3.1
- O=C(Nc1ccc(C(=O)O)c(O)c1)c1cc(Cl)c(OC2CCC2)c(OC2CCC2)c1: 0.23
- Cc1cc(NC(=O)c2cc(OC(C)C)c(Cl)c(OC(C)C)c2)ccc1C(=O)O: 4
- COc1c(Cl)cc(C(=O)Nc2ccc(C(=O)O)c(C)c2)cc1Cl: 18

Please look at the items below and tell me RARα activity ratio for each one, in order.
1. CCOc1cc(C(=O)Nc2ccc(C(=O)O)cc2)cc(OCC)c1OCC
2. Cc1cc(NC(=O)c2cc(Cl)c(OC3CCCC3)c(OC3CCCC3)c2)ccc1C(=O)O
3. O=C(O)c1ccc(NC(=O)c2cc(Cl)c(OC3CCCCC3)c(OC3CCCCC3)c2)cc1
4. COc1c(Cl)cc(C(=O)Nc2ccc(C(=O)O)c(O)c2)cc1C(F)(F)F

*A*
1. 370
2. 2.8
3. 11
4. 3.4

====

target-desc: RARα (Homo sapiens, UniProt P10276)
Construct: gal4 (fusion partner); expressed in transfected cells; host or cells: COS-7
run-description: Transactivation assay for RAR alpha (gal4-RAR fusion, luciferase reporter, COS-7 cells)
Format: cell-based
experimental-context: compared with XXX-03
Assign Improvement (RARα activity ratio) to each entry below.

• COc1c(Cl)cc(C(=O)Nc2ccc(C(=O)O)cc2)cc1Cl = ~3.1-fold
• O=C(O)c1ccc(NC(=O)c2cc(Cl)c(OC3CCC3)c(Cl)c2)cc1 = ~2.6-fold
• CCCOc1c(Cl)cc(C(=O)Nc2ccc(C(=O)O)cc2)cc1Cl = ~6.0-fold
• CC(C)Oc1c(Cl)cc(C(=O)Nc2ccc(C(=O)O)cc2)cc1Cl = ~13-fold
• CCOc1c(Cl)cc(C(=O)Nc2ccc(C(=O)O)c(C)c2)cc1Cl = ~100-fold
• CCOc1c(Cl)cc(C(=O)Nc2ccc(C(=O)O)cc2)cc1Cl = ~3.8-fold
• O=C(O)c1ccc(NC(=O)c2cc(Cl)c(OCc3ccccc3)c(Cl)c2)cc1 = ~1.3-fold

Next, consider the following compound.
*Q* Notebook entry, RARα (Homo sapiens, UniProt P10276) assay: Improvement (RARα activity ratio) of `O=C(O)c1ccc(NC(=O)c2cc(Cl)c(OCC3CC3)c(Cl)c2)cc1` = ?
*A* ~0.9-fold

====

Assignment: determine reported RARα/RARβ ratio (*) for the given molecules.
target-desc: RARα (Homo sapiens)
Construct: gal4 (fusion partner); expressed in transfected cells; host or cells: COS-7
run-description: Transactivation assay for RAR alpha (gal4-RAR fusion, luciferase reporter, COS-7 cells)
Type: cell-based
experimental-context: fold-selectivity for RARα over RARβ
Answers are plain numbers.

Quick request: RARα/RARβ ratio (*) for each listed item, please.
1. CCOc1c(Br)cc(C(=O)Nc2ccc(C(=O)O)c(C)c2)cc1Br [AAA-053]
2. CCOc1ccc(C(=O)Nc2ccc(C(=O)O)cc2)cc1C(F)(F)F [XXX-01, reference compound]
3. CCOc1c(Cl)cc(NC(=O)c2ccc(C(=O)O)cc2)cc1Cl [AAA-013]
4. CC1=C(/C=C/C(C)=C/C=C/C(C)=C/C(=O)O)C(C)(C)CCC1 [atRA, all trans retinoic acid]
5. COc1c(Cl)cc(C(=O)Nc2ccc(C(=O)O)c(F)c2)cc1C(F)(F)F [AAA-066]

*A*
1. 336
2. 7.9
3. 11.8
4. 1
5. 236

====

target-desc: RARγ (Homo sapiens, UniProt P13631)
Construct: gal4 (fusion partner); expressed in transfected cells; host or cells: COS-7
Sequence (P13631 185-419 limits assumed, species assumed): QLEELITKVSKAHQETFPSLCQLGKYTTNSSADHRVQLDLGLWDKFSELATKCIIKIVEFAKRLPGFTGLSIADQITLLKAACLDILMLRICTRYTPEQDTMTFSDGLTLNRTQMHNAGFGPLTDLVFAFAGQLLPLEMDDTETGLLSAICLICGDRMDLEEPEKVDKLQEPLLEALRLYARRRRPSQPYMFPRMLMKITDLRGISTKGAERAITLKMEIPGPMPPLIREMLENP
run-description: Transactivation assay for RAR gamma (gal4-RAR fusion, luciferase reporter, COS-7 cells)
Assay type: cell-based
experimental-context: ratio of test compound EC50 to that of atRA; inactive = no agonist action at the highest concentration tested
Threshold check on RARγ activity ratio: at or above 5000 gives Condition met, strictly below gives Condition not met.

* Cc1cc(NC(=O)c2cc(Br)c(OC(C)C)c(Br)c2)ccc1C(=O)O | Condition not met
* CCOc1c(Cl)cc(C(=O)Nc2ccc(C(=O)O)c(F)c2)cc1C(F)(F)F | Condition met
* COc1c(Cl)cc(C(=O)Nc2ccc(C(=O)O)c(C)c2)cc1OC1CCC1 | Condition not met
* Cc1cc(NC(=O)c2cc(Cl)c(OC3CCCC3)c(OC3CCCC3)c2)ccc1C(=O)O | Condition not met
* COc1c(Cl)cc(C(=O)Nc2ccc(C(=O)O)c(F)c2)cc1OC1CCC1 | Condition met

Now examine the next entry.
*Q* Item `Cc1cc(NC(=O)c2cc(OC(C)C)c(Cl)c(OC(C)C)c2)ccc1C(=O)O` with RARγ activity ratio of 5000 or above?
*A* Condition met

====

Tested on: cortical neurons
run-description: Survival of cortical neurons in the presence of 10 μM Aβ42
Format: cell-based, mouse
experimental-context: 1.0 μM agonist; 10 μM Aβ42; 3 days
Classification field: Condition met = % Surviving Neurons at or over 90%; Condition not met = % Surviving Neurons under 90%.

Worked cases, answers included:
• COc1ccc(-c2ccc3cc(C(=O)O)ccc3c2)cc1C1(C)CCCCC1 [CD 2019] = Condition not met
• O=C(O)c1ccc2cc(-c3ccc(O)c(C45CC6CC(CC(C6)C4)C5)c3)ccc2c1 [CD 437] = Condition not met
• CC1=C(/C=C/C(C)=C/C=C/C(C)=C/C(=O)O)C(C)(C)CCC1 [atRA, all trans retinoic acid] = Condition not met

*Q* Has CC1(C)CCC(C)(C)c2cc(C(=O)Nc3ccc(C(=O)O)cc3)ccc21 [AM 580] a recorded % Surviving Neurons greater than or equal to 90%?
*A* Condition met
